# Subject of test: IDO1 (Homo sapiens)
# Method description: IDO1 Cellular Assay in Hela Cells Stimulated with IFNγ
# Assay type: cell-based
# Protocol conditions: IFNγ 100 ng/mL, 300 uM L-tryptophan, about 48 hours, fluorescence readout, read-out: IDO1 HELA Cell Assay, IC50
pIC50: −log10 of the molar value.
Observed property: pIC50

Below, 2 compounds whose answers are already recorded.
{"Compound": "C[C@H](C(=O)Nc1ccc(F)c(Cl)c1)C12CC(NC(=O)c3ccc(Cl)c(Cl)c3)(C1)C2", "Observed property": "pIC50", "Observed result": 7.11}
{"Compound": "CC(C(=O)Nc1ccc(F)cc1)C12CC(NC(=O)c3cccnc3)(C1)C2 (centres unmarked)", "Observed property": "pIC50", "Observed result": 6.38}

P. CC(C(=O)Nc1ccc(F)cc1)C12CC(NC(=O)c3cnc(Cl)cn3)(C1)C2 (centres unmarked)
Q. Cc1ccnc(C(=O)NC23CC([C@H](C)C(=O)Nc4ccc(F)cc4)(C2)C3)n1
stdin: Could you kindly indicate whether P or Q has the higher pIC50 value? Write down the label attached to your selection.
stdout: Q

A. Cc1cccc(C(=O)NC23CC(C(C)C(=O)Nc4ccc(F)cc4)(C2)C3)n1 (centres unmarked)
B. CC(C(=O)Nc1ccc(Cl)c(F)c1)C12CC(NC(=O)c3cccc(Cl)c3)(C1)C2 (single isomer, unassigned) [Example 10]
C. C[C@H](C(=O)Nc1ccc(F)cc1)C12CC(NC(=O)OCc3ccccc3)(C1)C2
D. C[C@@H](C(=O)Nc1cnc(F)c(F)c1)C12CC(NC(=O)c3ccc(Cl)c(Cl)c3)(C1)C2
stdin: Please order the records by their reported pIC50, lowest number first. Please list the labels in the order you were asked to rank them.
stdout: D, A, B, C

a. CC(C(=O)Nc1ccc(F)cc1)C12CC(NC(=O)c3cc(C4CC4)on3)(C1)C2 (centres unmarked)
b. CC(C(=O)Nc1ccc(F)cc1)C12CC(NC(=O)c3cccc4ccncc34)(C1)C2 (centres unmarked)
c. C[C@@H](C(=O)Nc1ccc(F)cc1)C12CC(NC(=O)c3cc(F)cc(Cl)c3)(C1)C2
stdin: Please order the records by their reported pIC50, lowest number first. Please list the labels in the order you were asked to rank them.
stdout: b, a, c
(b: 6.61, a: 6.90, c: 8.63)

----------
# Subject of test: IDO1 (Homo sapiens)
# Method description: IDO1 Cellular Assay in Hela Cells Stimulated with IFNγ
# Format: cell-based
# Protocol conditions: IFNγ 100 ng/mL, 300 uM L-tryptophan, about 48 hours, fluorescence readout, read-out: IDO1 HELA Cell Assay, IC50
Observed property: IC50 (nM)

{"Molecule": "C[C@H](C(=O)Nc1cccc(C(F)(F)F)c1)C12CC(NC(=O)c3ccc(Cl)c(Cl)c3)(C1)C2", "Subject of test": "IDO1 (Homo sapiens)", "Observed property": "IC50", "Observed result": 111}
{"Molecule": "C[C@H](C(=O)Nc1ccc(F)cc1)C12CC(NC(=O)c3cc(F)cc(Cl)c3)(C1)C2", "Subject of test": "IDO1 (Homo sapiens)", "Observed property": "IC50", "Observed result": 152}
{"Molecule": "Cc1cncc(C(=O)NC23CC(C(C)C(=O)Nc4ccc(F)cc4)(C2)C3)c1 (stereo not drawn)", "Subject of test": "IDO1 (Homo sapiens)", "Observed property": "IC50", "Observed result": 132}

----------
# Subject of test: IDO1 (Homo sapiens, UniProt P14902)
# Sequence (P14902 whole entry): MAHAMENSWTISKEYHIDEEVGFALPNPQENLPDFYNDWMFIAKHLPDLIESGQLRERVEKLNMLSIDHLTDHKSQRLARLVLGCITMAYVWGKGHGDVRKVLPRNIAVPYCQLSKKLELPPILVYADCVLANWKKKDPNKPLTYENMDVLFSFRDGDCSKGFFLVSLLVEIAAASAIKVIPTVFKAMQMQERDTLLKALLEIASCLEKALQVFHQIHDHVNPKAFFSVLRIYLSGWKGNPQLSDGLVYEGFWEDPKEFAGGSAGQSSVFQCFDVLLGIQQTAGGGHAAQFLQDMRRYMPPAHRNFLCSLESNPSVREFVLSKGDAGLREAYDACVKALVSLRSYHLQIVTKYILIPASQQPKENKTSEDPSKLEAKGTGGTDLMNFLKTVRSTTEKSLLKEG
# Method description: IDO1 Cellular Assay in Hela Cells Stimulated with IFNγ
# Assay type: cell-based
# Protocol conditions: IFNγ 100 ng/mL, 300 uM L-tryptophan, about 48 hours, fluorescence readout, read-out: IDO1 HELA Cell Assay, IC50
Observed property: IC50 (nM)

{"Compound": "C[C@H](C(=O)Nc1ccc(C(F)(F)F)cc1)C12CC(NC(=O)c3ccc(Cl)c(Cl)c3)(C1)C2", "Subject of test": "IDO1 (Homo sapiens, UniProt P14902)", "Observed result": 23.2}
{"Compound": "C[C@H](C(=O)Nc1ccc(F)cc1)C12CC(NC(=O)c3ccc(C#N)c(Cl)c3)(C1)C2", "Subject of test": "IDO1 (Homo sapiens, UniProt P14902)", "Observed result": 48.3}
{"Compound": "C[C@H](C(=O)Nc1ccc(F)cc1)C12CC(NC(=O)c3cc(F)c(F)c(F)c3)(C1)C2", "Subject of test": "IDO1 (Homo sapiens, UniProt P14902)", "Observed result": 3.04}

A. CC(C(=O)Nc1ccc(F)cc1)C12CC(NC(=O)c3ccn(C(F)F)n3)(C1)C2 (stereo not drawn)
B. C[C@@H](C(=O)Nc1ccc(F)c(F)c1)C12CC(NC(=O)c3ccc(Cl)c(Cl)c3)(C1)C2
C. O=C(NC12CC(C3(NC(=O)c4ccc(F)cc4)CC3)(C1)C2)c1ccc(Cl)c(Cl)c1
stdin: Please rank these compounds by IC50 in descending order. Please list the labels in the order you were asked to rank them.
stdout: A, B, C
(A: 248 nM, B: 122 nM, C: 4.13 nM)

I. C[C@@H](C(=O)Nc1ccc(F)cc1)C12CC(NC(=O)c3ccc(F)c(F)c3)(C1)C2
II. CC(C(=O)Nc1ccc(F)cc1)C12CC(NC(=O)c3cccc(Cl)c3)(C1)C2 (single isomer, unassigned)
stdin: Could you kindly indicate whether I or II has the higher IC50 value? Write down the label attached to your selection.
stdout: I
(I: 153 nM, II: 3.05 nM)

----------
# Subject of test: UniProt P14902
# Method description: IDO1 Cellular Assay in Hela Cells Stimulated with IFNγ
# Assay type: cell-based
# Protocol conditions: IFNγ 100 ng/mL, 300 uM L-tryptophan, about 48 hours, fluorescence readout, read-out: IDO1 HELA Cell Assay, IC50
# Procedure: Biological Assays IDO1 Cellular Assay in Hela Cells Stimulated with IFNγ Hela cells were cultured in complete Hela culture medium ([…], 10% heat-inactivated fetal bovine serum) and expanded to about 1×10^9 cells. […] Hela cells with and without IFNγ were dispensed to the respective wells of 384-well assay plates containing the compounds. […] The resulting fluorescence was measured in a Spectramax plate reader (Molecular Devices) with a 400 nm excitation filter and a 510 nm emission filter. […]
pIC50: −log10 of the molar value.
Observed property: pIC50

{"Compound": "CC(C(=O)Nc1ccc(F)cc1)C12CC(NC(=O)Cc3ccccc3C(F)(F)F)(C1)C2 (stereo not shown)", "Subject of test": "UniProt P14902", "Observed property": "pIC50", "Observed result": 6.71}
{"Compound": "CC(C(=O)Nc1ccc(F)cc1)C12CC(NC(=O)c3cccc4ccnn34)(C1)C2 (stereo not shown)", "Subject of test": "UniProt P14902", "Observed property": "pIC50", "Observed result": 6.74}
{"Compound": "C[C@@H](C(=O)Nc1ccc(F)cc1)C12CC(NC(=O)c3ccc(F)c(Cl)c3)(C1)C2", "Subject of test": "UniProt P14902", "Observed property": "pIC50", "Observed result": 6.91}
{"Compound": "Cc1ccn2ncc(C(=O)NC34CC(C(C)C(=O)Nc5ccc(F)cc5)(C3)C4)c2c1 (stereo not shown)", "Subject of test": "UniProt P14902", "Observed property": "pIC50", "Observed result": 6.82}
